System: genotype 2a stable HCV replicon (JFH-1 strain) in Huh-7-derived cells
EXPERIMENTAL PROTOCOL: Stable subgenomic HCV replicon EC50, genotype 2a (Renilla luciferase)
Assay type: cell-based
CONDITION SET: Hepatitis C virus, stable replicon genotype 2a, 72 h, read-out: EC50 2A RLUC
Description: Antiviral potency (EC50) was determined in both stable subgenomic HCV replicon cell lines and transient-transfected HCV replicon cells. […] Stable subgenomic HCV replicons for genotype 1a, 1 b, 2a, 3a, and 4a were established in Huh-7-derived cells as described by Lohmann et al (Lohmann V, Korner F, Koch J, et al Replication of subgenomic hepatitis C virus RNAs in a hepatoma cell line. Science 1999; 285:119-3). […] Luciferase activity was measured as a marker for intracellular HCV replication levels. […]
Listed next: entries and their corresponding EC50.
METRIC: EC50

[[record]]
molecule = "CC[C@@H]1[C@@H]2CN(C(=O)[C@H](C(C)(C)C)NC(=O)O[C@@H]3C[C@H]3CC/C=C/C(F)(F)C3Nc4ccc(C#N)cc4N=C3O2)[C@@H]1C(=O)N[C@]1(C(=O)NS(=O)(=O)C2(C)CC2)C[C@H]1C(F)F (stereo partly drawn)"
system_name = "genotype 2a stable HCV replicon (JFH-1 strain) in Huh-7-derived cells"
observed_result = "195 nM"

[[record]]
molecule = "CC[C@@H]1[C@@H]2CN(C(=O)[C@H](C(C)(C)C)NC(=O)O[C@]3(C(F)(F)F)CCC[C@H]3CCCCCc3nc4ccc(OC)cc4nc3O2)[C@@H]1C(=O)N[C@]1(C(=O)NS(=O)(=O)C2CC2)C[C@H]1C(F)F"
system_name = "genotype 2a stable HCV replicon (JFH-1 strain) in Huh-7-derived cells"
observed_result = "34 nM"

[[record]]
molecule = "CC[C@@H]1[C@@H]2CN(C(=O)[C@H](C(C)(C)C)NC(=O)O[C@]3(C)CCC[C@H]3CCCCCc3nc4ccc(OC)cc4nc3O2)[C@@H]1C(=O)N[C@]1(C(=O)NS(=O)(=O)C2(C)CC2)C[C@H]1CC(F)F"
system_name = "genotype 2a stable HCV replicon (JFH-1 strain) in Huh-7-derived cells"
observed_result = "106 nM"


----------
Test system: genotype 2a stable HCV replicon (JFH-1 strain) in Huh-7-derived cells
EXPERIMENTAL PROTOCOL: Stable subgenomic HCV replicon EC50, genotype 2a (Renilla luciferase)
Type: cell-based
CONDITION SET: Hepatitis C virus, stable replicon genotype 2a, 72 h, read-out: EC50 2A RLUC
Examples of compounds with documented EC50 follow.
METRIC: EC50 (nM)

[[record]]
mol_smiles = "C[C@@H]1[C@@H]2CN(C(=O)[C@H](C(C)(C)C)NC(=O)O[C@@H]3C[C@H]3CCCCC(F)(F)c3nc4ccc(Cl)cc4nc3O2)[C@@H]1C(=O)N[C@]1(C(=O)NS(=O)(=O)C2(C)CC2)C[C@H]1C(F)F"
unit_of_measurement = "nM"
observed_result = 2.7

[[record]]
mol_smiles = "C=C[C@@H]1C[C@]1(NC(=O)[C@@H]1[C@H](CC)[C@@H]2CN1C(=O)[C@H](C(C)(C)C)NC(=O)O[C@@H]1C[C@H]1CCCCC(F)(F)c1nc3ccc(OC)cc3nc1O2)C(=O)NS(=O)(=O)C1CC1"
unit_of_measurement = "nM"
observed_result = 4.6

